# systemName: Akt1 (Homo sapiens, UniProt P31749, S473D)
# Construct: The version of Akt used in these studies lacks the pleckstrin homology (PH) domain
# Sequence (P31749 118-480 S473D limits assumed, species assumed): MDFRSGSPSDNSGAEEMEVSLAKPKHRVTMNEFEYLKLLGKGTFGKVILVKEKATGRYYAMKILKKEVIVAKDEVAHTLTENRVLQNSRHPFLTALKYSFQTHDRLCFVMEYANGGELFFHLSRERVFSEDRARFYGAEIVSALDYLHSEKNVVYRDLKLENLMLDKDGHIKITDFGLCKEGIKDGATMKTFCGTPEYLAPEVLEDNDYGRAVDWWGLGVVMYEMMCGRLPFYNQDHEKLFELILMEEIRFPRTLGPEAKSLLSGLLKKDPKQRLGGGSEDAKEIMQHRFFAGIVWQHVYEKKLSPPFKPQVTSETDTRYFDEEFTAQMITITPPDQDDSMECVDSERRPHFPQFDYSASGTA
# measurementProtocol: Akt1 kinase assay, fluorescence polarization (IMAP)
# Format: biochemical
# condition: Table 1, concentration bins; read-out: Concentration Range at which exemplary compounds of formula I inhibit Akt kinase activity
quantityName: IC50

Check out these entries, answers already filled in.
# compound, measuredValue
measured = [
    ("Cc1cccc(F)c1C(=O)NC[C@@]1(N)CCN(c2ncnc3[nH]cc(C)c23)C1", "10.1 to 100 nM"),
    ("CCc1c[nH]c2ncnc(N3CC[C@](N)(CNC(=O)c4ccc(F)cc4)C3)c12", "0.25 to 2.5 nM"),
    ("N#Cc1c[nH]c2nccc(N3CCC(N)(CNc4ccccc4Oc4ccccc4)C3)c12 (centres unmarked)", "2.51 to 10 nM"),
    ("Cc1n[nH]c2ncnc(N3CCC(N)(CNc4cccc(Cl)c4F)C3)c12 (centres unmarked)", "10.1 to 100 nM"),
]

Hello, I would appreciate it if you could give IC50 for each entry below.
1. NC1(CNc2cccc(C(F)(F)F)c2)CCN(c2ncnc3[nH]cnc23)C1 (centres unmarked)
2. CCc1c[nH]c2ncnc(N3CC[C@](N)(CNC(=O)c4ccc(Cl)cc4F)C3)c12
3. CNC1(CNC(=O)c2ccccc2)CCN(c2ncnc3[nH]cc(Cl)c23)C1 (centres unmarked)
4. N#Cc1c[nH]c2ncnc(N3CC[C@](N)(CNC(=O)c4cccc(F)c4F)C3)c12

// result
["101 to 10000 nM", "2.51 to 10 nM", "10.1 to 100 nM", "10.1 to 100 nM"]

Answer for every listed entry: what is its IC50? The entries follow.
1. Cc1c[nH]c2ncnc(N3CCC(N)(CNC(=O)c4ccccc4)C3)c12 (centres unmarked)
2. Cc1c[nH]c2ncnc(N3CCC(N)(CNc4ccccc4N4CCCCC4)C3)c12 (centres unmarked)
3. Cc1c[nH]c2ncnc(N3CC[C@](N)(CNC(=O)c4ccccc4Cl)C3)c12
4. N[C@]1(CNC(=O)c2ccc(F)cc2F)CCN(c2ncnc3[nH]cc(Cl)c23)C1
5. CCc1c[nH]c2ncnc(N3CC[C@](N)(CNC(=O)c4ccccc4F)C3)c12
6. Cc1c[nH]c2ncnc(N3CCC(N)(CN4CCc5ccccc54)C3)c12 (centres unmarked)

// result
["10.1 to 100 nM", "10.1 to 100 nM", "2.51 to 10 nM", "0.25 to 2.5 nM", "0.25 to 2.5 nM", "10.1 to 100 nM"]

Hi, could you look up IC50 for each item in my list?
1. CCc1c[nH]c2ncnc(N3CC[C@](N)(CNC(=O)c4ccccc4)C3)c12
2. CN(CC1(N)CCN(c2ncnc3[nH]cc(Cl)c23)C1)c1ccc(Cl)cc1 (centres unmarked)
3. Cc1ccccc1C(=O)NC[C@@]1(N)CCN(c2ncnc3[nH]cc(Cl)c23)C1

// result
1: 2.51 to 10 nM; 2: 10.1 to 100 nM; 3: 2.51 to 10 nM

* * *

I'd appreciate it if you could supply IC50 values for the items below.
# systemName: Akt1 (Homo sapiens, UniProt P31749, S473D)
# Construct: The version of Akt used in these studies lacks the pleckstrin homology (PH) domain
# measurementProtocol: Akt1 kinase assay, fluorescence polarization (IMAP)
# Assay type: biochemical
# condition: read-out: Avg Akt kinase, μM (50% inhibition)
One number for each entry, in µM.

# compound, systemName, IC50 [µM]
rows = [
    ("Cc1c[nH]c2ncnc(N3CCC(N)(CN(C)C(=O)c4ccc(Cl)cc4)C3)c12 (centres unmarked)", "Akt1 (Homo sapiens, UniProt P31749, S473D)", 0.123),
    ("CNC1(CNC(=O)c2ccccc2)CCN(c2ncnc3[nH]cc(Cl)c23)C1 (centres unmarked)", "Akt1 (Homo sapiens, UniProt P31749, S473D)", 0.0897),
    ("Cc1c[nH]c2ncnc(N3CCC(N)(CNS(=O)(=O)c4c(F)cccc4F)C3)c12 (centres unmarked)", "Akt1 (Homo sapiens, UniProt P31749, S473D)", 0.00267),
    ("Cc1c[nH]c2ncnc(N3CCC(N)(CN(CCN(C)C)C(=O)Nc4ccccc4)C3)c12 (centres unmarked)", "Akt1 (Homo sapiens, UniProt P31749, S473D)", 0.141),
]

Next compound, IC50 to be filled in.
// query GET /values?readout=IC50&item= Cc1c[nH]c2ncnc(N3CCC(N)(CN(C)C(=O)c4ccccc4F)C3)c12 (centres unmarked)
// result 0.148
